TARGET DESC: T1, FZD9 cysteine-rich domain (CRD), MYC-tagged and GPI-anchored on CHO cells (human, UniProt O00144 35-161, GPI anchor)
T1 construct: also called FZD9 CRD; CHO-myc-FZDGPI; not shown: MYC tag and GPI anchor signal
T1 sequence: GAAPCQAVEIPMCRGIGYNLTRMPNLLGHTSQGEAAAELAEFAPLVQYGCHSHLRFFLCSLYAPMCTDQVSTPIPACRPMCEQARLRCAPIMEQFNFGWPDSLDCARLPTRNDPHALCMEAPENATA
ASSAY TEXT: flow cytometry, CHO-CRD cells;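 note: flow cytometry of Fab binding to CHO cells overexpressing a Frizzled CRD, with binding defined as median fluorescence over twice that of CHO cells lacking any Frizzled CRD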
MEASUREMENT NAME: median fluorescence
Please reply with the number alone, leaving off any unit.

Briefly, median fluorescence measured for Fab-2926 (Fab, V domains shown, Fab; also called Fv-2926) VH: EVQLVESGGGLVQPGGSLRLSCAASGFNIYSSYMHWVRQAPGKGLEWVASIYPSSSSTSYADSVKGRFTISADTSKNTAYLQMNSLRAEDTAVYYCARGGLDYWGQGTLVTVSS VL: DIQMTQSPSSLSASVGDRVTITCRASQSVSSAVAWYQQKPGKAPKLLIYSASSLYSGVPSRFSGSRSGTDFTLTISSLQPEDFATYYCQQWYHGGSLFTFGQGTKVEIK : 3.65

Briefly, median fluorescence measured for Fab-2908 (Fab, V domains shown, Fab; also called Fv-2908) VH: EVQLVESGGGLVQPGGSLRLSCAASGFNFSSSSIHWVRQAPGKGLEWVAYIYPSYSYTYYADSVKGRFTISADTSKNTAYLQMNSLRAEDTAVYYCARAYYGHFHAMDYWGQGTLVTVSS VL: DIQMTQSPSSLSASVGDRVTITCRASQSVSSAVAWYQQKPGKAPKLLIYSASSLYSGVPSRFSGSRSGTDFTLTISSLQPEDFATYYCQQSSYSLITFGQGTKVEIK : 3.13
